tested system: serine acetyltransferase
assay protocol: Serine acetyltransferase enzyme activity test with and without L-cysteine (inhibitor constant Ki, specific activity)
Type: biochemical, E. coli
stated conditions: Table 6; carboxyterminal deletions; inhibitor L-cysteine
pKi: −log10 of the molar value.
Parameter: pKi. Scope: all listed entries.
experimental endpoint: pKi

[[record]]
molecule = "cysE-Del248: carboxyterminal deletion of 25 amino acids, terminal Asp248 (protein, UniProt P0A9D4 1-248, looked up, fragment) MSCEELEIVWNNIKAEARTLADCEPMLASFYHATLLKHENLGSALSYMLANKLSSPIMPAIAIREVVEEAYAADPEMIASAACDIQAVRTRDPAVDKYSTPLLYLKGFHALQAYRIGHWLWNQGRRALAIFLQNQVSVTFQVDIHPAAKIGRGIMLDHATGIVVGETAVIENDVSILQSVTLGGTGKSGGDRHPKIREGVMIGAGAKILGNIEVGRGAKIGAGSVVLQPVPPHTTAAGVPARIVGKPD"
val = 4.90

[[record]]
molecule = "cysE-Del256: carboxyterminal deletion of 17 amino acids, terminal Met256 (protein, UniProt P0A9D4 1-256, looked up, fragment) MSCEELEIVWNNIKAEARTLADCEPMLASFYHATLLKHENLGSALSYMLANKLSSPIMPAIAIREVVEEAYAADPEMIASAACDIQAVRTRDPAVDKYSTPLLYLKGFHALQAYRIGHWLWNQGRRALAIFLQNQVSVTFQVDIHPAAKIGRGIMLDHATGIVVGETAVIENDVSILQSVTLGGTGKSGGDRHPKIREGVMIGAGAKILGNIEVGRGAKIGAGSVVLQPVPPHTTAAGVPARIVGKPDSDKPSMDM"
val = 4.90

